Test system: MS2 coat protein
Assay Comment: apparent Kd, MS2 coat protein; higher = weaker binding; RNA-MaP array
Study Conditions: ligand present: theophylline; designed as: ON switch for theophylline
Listing of entries alongside the reported apparent Kd.
Report the value in nM with no unit label.

Reference set, count: 3
Entry Sequence: ACCGGCACCUAGGAUACCAGAUCCACAACAAACAUGAGGAUCACCCAUGUAUAAAGUGGUAUCCCUUGGCAGCCUGUGACAAUCG
Recorded Measurement: 14.8
//
Entry Sequence: CGUAGGAUCGUGGAUACCAGUACCGCCCACGACAUGAGGAUCACCCAUGUAGGUAAUCUUUACCCUUGGCAGCCAUUUUUUUCUG
Recorded Measurement: 52.9
//
Entry Sequence: ACCUCAAUGGAUGAUACCAGCUCAAGGACGAACAUGAGGAUCACCCAUGUGACGUGGUGUAGCCCUUGGCAGCAUACUGACACCU
Recorded Measurement: 21.3

Would you mind telling me what apparent Kd value was observed for "CAACUGGCAGAGGAUACCAGAUCAUUUAGAAACAUGAGGAUCACCCAUGUCGUAAGGAUAAUCCCUUGGCAGCCUAUCCGCCUCG" ?
10.8

May I ask what apparent Kd has been recorded for "CGCGUCCCGGACGAUACCAGAUAUGAGCGACACAUGAGGAUCACCCAUGUCAAUCAUGAGAUCCCUUGGCAGCGUUUGCACAACU" ?
209

Return reported apparent Kd; argument: "GGCUAACAUGAGGAUCACCCAUGUAUUGAUACCAGUAUUUGAAAAUACCCUUGGCAGCAAAUGAAGAGCGUAGCAGGGUCGAUUA"
16.8

Find the recorded apparent Kd belonging to "GUGGGACAUGAGGAUCACCCAUGUGACGAUACCAGUCAAUUGAUGGACCCUUGGCAGCGUUGGUAUUGCGGGUAGGCGAGAUAAG" and report it.
45.4
